// provenance: patent US20170150719A1

Tested on: Septoria tritici
Assay: Test F: wheat leaf blotch, preventive spray on wheat seedlings, visual disease rating
Type: in vivo
Conditions: Zymoseptoria tritici, 100 = 100% disease control, 0 = no disease control relative to the controls
Would you kindly list pest or weed control at 200 µg/mL for each of these molecules?
Numbers only here, please. The scale is %.

# query: pest or weed control at 200 µg/mL of entry Cc1nn(C)c(C(O)c2ccc(F)cc2Br)c1-c1ccc(F)cc1Cl (stereo not shown)
100

Now this one: Cc1nn(C)c(Nc2c(F)cc(F)cc2Br)c1-c1ccc(F)cc1F
100

Subsequent entry: Cc1nn(C)c(Nc2c(F)cc(Br)cc2F)c1-c1ccc(F)cc1Cl
100

Please give the result for COc1cc(F)c(-c2c(C)nn(C)c2Nc2c(F)cc(F)cc2F)c(F)c1 too.
94

Cc1nn(C)c(Nc2c(F)cc(C#N)cc2F)c1-c1ccc(F)cc1Cl ?
99

How about COc1cc(F)c(-c2c(C)nn(C)c2Nc2ccc(F)cc2F)c(F)c1 ?
93

Note, next up: Cc1nn(C)c(Nc2ccc(F)cc2Br)c1-c1ccc(F)cc1Cl
100

One more molecule: Cc1nn(C)c(Nc2ccc(F)cc2Cl)c1-c1ccc(F)cc1Cl
96

How about Cc1nn(C)c(Nc2ccc(Cl)cc2F)c1-c1c(F)cc(C#N)cc1F ?
100

Same for Cc1nn(C)c(Nc2c(F)cc(F)cc2Cl)c1-c1ccc(F)cc1Br
100

---

Test system: Alternaria solani
Test: Test B: tomato early blight, preventive spray on tomato seedlings, visual disease rating
Conditions: tomato early blight; 100 = 100% disease control, 0 = no disease control relative to the controls
Record 1 (yes) whenever Test B rating (disease control) is at 40% or higher; record 0 (no) when lower.

Check this molecule for Test B rating (disease control) at or above 40%: Cc1nn(C)c(Oc2ccc(C#N)cc2F)c1-c1c(F)cccc1Cl
0 (no)

Now try Cc1nn(C)c(Nc2c(F)cccc2F)c1-c1ccc(F)cc1F .
1 (yes)

Next: COc1cc(F)c(Nc2c(-c3c(F)cc(C#N)cc3F)c(C)nn2C)c(F)c1
0 (no)

Ok, now Cc1nn(C)c(Nc2c(F)cc(Cl)cc2F)c1-c1ccc(Cl)cc1Cl
1 (yes)

And then COc1ccc(-c2c(C)nn(C)c2Nc2c(F)cccc2F)c(Cl)c1 , what is it?
1 (yes)

Next record, please: Cc1nn(C)c(Nc2c(F)cc(F)cc2F)c1-c1c(F)cccc1F
1 (yes)

Same read-out for COc1ccc(Nc2c(-c3c(F)cccc3F)c(C)nn2C)c(Cl)c1 ?
1 (yes)

Follow-up item: Cc1nn(C)c(Nc2ccc(Cl)cc2Cl)c1-c1c(Cl)cccc1Cl
0 (no)

Now the molecule COc1ccc(Nc2c(-c3ccc(F)cc3F)c(C)nn2C)c(F)c1
1 (yes)

Also Cc1nn(C)c(Nc2ccc(F)cc2Cl)c1-c1ccc(C#N)cc1Cl , if possible.
0 (no)

Record: Cc1nn(C)c(Nc2ccc(F)cc2F)c1-c1ccc(F)cc1F
1 (yes)

Same for COc1ccc(Oc2c(-c3ccc(F)cc3Cl)c(C)nn2C)c(F)c1
1 (yes)

Okay, and Cc1nn(C)c(Nc2ccc(F)cc2F)c1-c1c(Cl)cccc1Cl ?
0 (no)

How about CCOc1ccc(Nc2c(-c3ccc(F)cc3Cl)c(C)nn2C)c(Cl)c1 ?
0 (no)

// next record Cc1nn(C)c(Oc2ccc(C#N)cc2F)c1-c1ccc(Cl)cc1F
1 (yes)
